TARGET OR SYSTEM: PRMT5 (Homo sapiens)
Construct: purchased Viva (custom protein)
METHOD NOTES: PRMT5 biochemical IC50 assay with no cofactor
CONDITION SUMMARY: PRMT5, no cofactor; read-out: No Cofactor/ rel IC50
pIC50: −log10 of the molar value.
QUANTITY NAME: pIC50

Solved cases (5 shown):
MOLECULE: NC(=O)c1cncc(NC(=O)C(=O)N2CCCCC2C2CCCCC2)c1 (single isomer, unassigned) [Compound 108]
pIC50: < 6.30
//
MOLECULE: Cc1cc([C@@H]2CC[C@@H](C)CN2C(=O)C(=O)Nc2cncc(C(N)=O)c2)ccc1OC1CCOC1 (mixture of isomers)
pIC50: 6.30 to 7.30
//
MOLECULE: NC(=O)c1cc(NC(=O)C(=O)N2CCCCC2c2ccccc2)cnc1N (stereo not shown)
pIC50: < 6.30
//
MOLECULE: Cc1cncc(NC(=O)C(=O)N2C[C@@H](C)CC[C@@H]2c2cccs2)c1 (racemic) [Compound 60]
pIC50: < 6.30
//
MOLECULE: CCc1cc(NC(=O)C(=O)N2C[C@@H](C)CC[C@@H]2c2ccc3sc(CN(C)C(C)C)nc3c2)cnc1N
pIC50: > 7.30

Item Cc1cncc(NC(=O)C(=O)N2CCCC[C@H]2c2cccc(C)c2)c1 (single isomer, unassigned) : provide pIC50
< 6.30

Item Cc1cncc(NC(=O)C(=O)N2C[C@H](C)CC[C@H]2c2ccc(C)c(C)c2)c1 (single isomer, unassigned) : provide pIC50
6.30 to 7.30

----------
TARGET OR SYSTEM: PRMT5 (Homo sapiens, UniProt O14744)
Construct: purchased Viva (custom protein)
Sequence (O14744 whole entry): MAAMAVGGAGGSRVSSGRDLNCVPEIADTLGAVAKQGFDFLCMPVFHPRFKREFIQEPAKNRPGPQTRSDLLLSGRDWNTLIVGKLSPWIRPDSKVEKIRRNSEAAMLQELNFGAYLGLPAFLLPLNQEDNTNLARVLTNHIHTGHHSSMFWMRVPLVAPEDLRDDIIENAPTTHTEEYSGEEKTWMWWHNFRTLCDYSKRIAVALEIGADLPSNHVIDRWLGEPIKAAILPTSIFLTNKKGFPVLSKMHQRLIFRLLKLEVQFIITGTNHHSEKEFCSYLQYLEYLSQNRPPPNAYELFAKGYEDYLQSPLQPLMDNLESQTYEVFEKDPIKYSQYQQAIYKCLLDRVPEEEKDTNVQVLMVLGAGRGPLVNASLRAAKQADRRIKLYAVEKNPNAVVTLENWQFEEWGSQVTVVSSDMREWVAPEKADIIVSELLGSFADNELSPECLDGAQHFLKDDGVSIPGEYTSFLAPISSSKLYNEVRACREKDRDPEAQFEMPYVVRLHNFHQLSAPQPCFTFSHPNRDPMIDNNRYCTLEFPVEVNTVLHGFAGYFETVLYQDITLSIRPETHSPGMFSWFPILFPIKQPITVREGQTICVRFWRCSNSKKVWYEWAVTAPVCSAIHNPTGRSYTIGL
Sequence (Q9BQA1 whole entry partner): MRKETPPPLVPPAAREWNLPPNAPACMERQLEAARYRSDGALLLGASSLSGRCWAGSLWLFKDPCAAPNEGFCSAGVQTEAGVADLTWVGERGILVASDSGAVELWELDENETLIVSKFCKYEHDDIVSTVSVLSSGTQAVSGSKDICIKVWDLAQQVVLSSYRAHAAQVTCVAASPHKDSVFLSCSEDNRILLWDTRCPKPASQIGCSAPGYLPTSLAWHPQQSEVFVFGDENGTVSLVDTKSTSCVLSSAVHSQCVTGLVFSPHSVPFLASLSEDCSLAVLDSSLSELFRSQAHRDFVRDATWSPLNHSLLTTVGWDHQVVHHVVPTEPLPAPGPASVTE
METHOD NOTES: PRMT5 biochemical IC50 assay with MTA as cofactor
CONDITION SUMMARY: PRMT5, MTA as cofactor; read-out: MTA IC50
pIC50: −log10 of the molar value.
A collection of compounds and their measured pIC50

COMPOUND: COc1ncc(NC(=O)C(=O)N2C[C@H](C)CC[C@H]2c2ccc(O)cc2)cc1C(N)=O (single isomer, unassigned)
pIC50: < 6.30

COMPOUND: NC(=O)c1cncc(NC(=O)C(=O)N2CCC3(CCOCC3)CC2)c1
pIC50: 6.30 to 7.30

COMPOUND: Cc1cc(NC(=O)C(=O)N2C[C@H](C)CC[C@H]2c2cccc(C3CCN(C)CC3)c2)cnc1N (racemic) [Compound 1149]
pIC50: > 7.30

COMPOUND: CCc1cc(NC(=O)C(=O)N2C[C@@H](C)CC[C@@H]2c2cccc(C3CCN(C)CC3)c2)cnc1N
pIC50: > 7.30

COMPOUND: Cc1cc(NC(=O)C(=O)N2CCCCC2c2cccc3ocnc23)cnc1N (stereo not shown)
pIC50: < 6.30

Give reported pIC50 for CCc1cc(NC(=O)C(=O)N2C[C@@H](C)CC[C@@H]2c2ccc3sc([C@H](C)N(C)C)nc3c2)cnc1N (single isomer, unassigned) (PRMT5 (Homo sapiens, UniProt O14744))
> 7.30

Give reported pIC50 for Cc1cc(NC(=O)C(=O)N2CCCC[C@@H]2C2CCCC2)cnc1N (single isomer, unassigned) (PRMT5 (Homo sapiens, UniProt O14744))
< 6.30

----------
TARGET OR SYSTEM: PRMT5 (Homo sapiens, UniProt O14744)
Construct: purchased Viva (custom protein)
METHOD NOTES: PRMT5 biochemical IC50 assay with SAM as cofactor
CONDITION SUMMARY: PRMT5, SAM as cofactor; read-out: SAM IC50
A collection of compounds and their measured IC50

Solved cases (5 shown):
COMPOUND: Cc1cc(NC(=O)C(=O)N2C[C@@H](C)CC[C@@H]2c2ccn(-c3cc[nH]n3)n2)cnc1N (single isomer, unassigned)
ASSAY RESULT: > 500 nM
//
COMPOUND: Cc1cc(NC(=O)C(=O)N2C[C@H](C)CC[C@H]2C2CCCC(C)(C)C2)cnc1N (mixture of isomers)
ASSAY RESULT: 50 to 500 nM
//
COMPOUND: Cc1cc(NC(=O)C(=O)N2CCCC[C@@H]2C(C)C)cnc1N (single isomer, unassigned)
ASSAY RESULT: > 500 nM
//
COMPOUND: C[C@@H]1CC[C@@H](c2cccs2)N(C(=O)C(=O)Nc2cncc(C(N)=O)c2)C1 (single isomer, unassigned) [Compound 201]
ASSAY RESULT: > 500 nM
//
COMPOUND: COc1ncc(NC(=O)C(=O)N2C[C@@H](C)CC[C@@H]2c2ccc3c(c2)CCC(=O)N3)cc1C(N)=O (single isomer, unassigned)
ASSAY RESULT: > 500 nM

Consider the additional compound presented here.
Item COc1ccc([C@@H]2CC[C@@H](C)CN2C(=O)C(=O)Nc2cncc(C(N)=O)c2)cc1F (racemic) : provide IC50
50 to 500 nM
